Taken from PubChem BioAssay (EPA / NIEHS).

Assay: ATG_TA_CIS: Attagene CIS-FACTORIAL HepG2 Assay for human TA Basal Promoter (AID 2282964)
Settings: HepG2 Attagene CIS-factorial TA basal promoter reporter; actives raise or lower the signal
The source made the active and inactive calls. How the source made its calls: active means hit-call score of the fitted dose curve at least 0.9, where 1 is the maximum; inactive means score below 0.9.
Measured Attribute: outcome

>>> value_reported("C=CCc1ccc(OC)cc1")
"inactive"
>>> value_reported("Nc1ccc(-c2ccc(N)c(Cl)c2)cc1Cl")
"inactive"
>>> value_reported("Clc1ccc(C2(Cn3cncn3)CC(Br)CO2)c(Cl)c1 (configuration not stated)")
"inactive"
>>> value_reported("CCC[CH2][Sn]([CH2]CCC)([CH2]CCC)[O]C(=O)c1ccccc1")
"inactive"
>>> value_reported("N#CCCO")
"inactive"
>>> value_reported("CCOC(=O)Nc1cccc(OC(=O)Nc2ccccc2)c1")
"inactive"
>>> value_reported("COc1ccc(OC)c(C=O)c1")
"inactive"
>>> value_reported("CN(CCCC(=O)c1cccnc1)N=O")
"inactive"
>>> value_reported("O=[N+]([O-])c1c(Cl)c(Cl)cc(Cl)c1Cl")
"inactive"
>>> value_reported("COc1cc2c(cc1OC)[C@@]13CCN4CC5=CCO[C@H]6CC(=O)N2[C@H]1[C@H]6[C@H]5C[C@H]43")
"inactive"
>>> value_reported("Cc1ccc2ccccc2c1C")
"inactive"
>>> value_reported("CCC(=O)C(CC(C)N(C)C)(c1ccccc1)c1ccccc1 (configuration not stated)")
"inactive"
>>> value_reported("COP(=S)(OC)Oc1ccc(Sc2ccc(OP(=S)(OC)OC)cc2)cc1")
"inactive"
>>> value_reported("Clc1ccc(COC(Cn2ccnc2)c2ccc(Cl)cc2Cl)cc1 (configuration not stated)")
"inactive"
>>> value_reported("O=C1C2(Cl)C3(Cl)C4(Cl)C(Cl)(Cl)C5(Cl)C3(Cl)C1(Cl)C5(Cl)C24Cl (configuration not stated)")
"inactive"
>>> value_reported("O=C(Cc1ccccc1)c1ccccc1")
"inactive"
>>> value_reported("CCN1CCC2(CC1)COc1cc3c(cc12)N(C(=O)c1ccc(-c2ccc(-c4nnc(C)o4)cc2C)cc1)CC3")
"inactive"
>>> value_reported("Nc1ccc(N=Nc2ccc(-c3ccc(N=Nc4c(S(=O)(=O)O)cc5cc(S(=O)(=O)O)c(N=Nc6ccccc6)c(O)c5c4N)cc3)cc2)c(N)c1")
"inactive"
>>> value_reported("COc1ccc(C=O)cc1OC")
"inactive"
>>> value_reported("C=CC(=O)OCCCCCC(C)C")
"inactive"
>>> value_reported("Cc1ccc(N)cc1Cl")
"inactive"
>>> value_reported("CC(=O)C(Cl)C(=O)N(C)C (configuration not stated)")
"inactive"
>>> value_reported("CC1CN1P(=O)(N1CC1C)N1CC1C (configuration not stated)")
"inactive"
>>> value_reported("CC12CC1(C)C(=O)N(c1cc(Cl)cc(Cl)c1)C2=O (configuration not stated)")
"inactive"
>>> value_reported("Oc1ccc(-c2ccccc2)cc1")
"inactive"
>>> value_reported("O=C(O)C(Cl)(Cl)Cl")
"inactive"
>>> value_reported("CC1(C)CCC(Cc2ccc(Cl)cc2)C1(O)Cn1cncn1 (configuration not stated)")
"inactive"
>>> value_reported("N#Cc1ccccn1")
"inactive"
>>> value_reported("CC(C)c1cccc(C(C)C)c1O")
"inactive"
>>> value_reported("CCCCOCCOC(C)=O")
"inactive"
>>> value_reported("ClCc1ccccn1")
"inactive"
>>> value_reported("CC(C)(c1ccccc1)c1ccc(O)c(C(C)(C)c2ccccc2)c1")
"inactive"
>>> value_reported("O=C(CCl)CCl")
"inactive"
>>> value_reported("CCNc1nc(NC(C)(C)C)nc(SC)n1")
"inactive"
>>> value_reported("COP(=O)(OC)OC")
"inactive"
>>> value_reported("Cc1ccccc1C(=O)Nc1cccc(OC(C)C)c1")
"inactive"
>>> value_reported("O=C(NCO)NCO")
"inactive"
>>> value_reported("COc1cc(OC)nc(NC(=O)NS(=O)(=O)c2ncccc2C(=O)N(C)C)n1")
"inactive"
>>> value_reported("C[C@H]1O[C@@H](O[C@H]2[C@@H](O)C[C@H](O[C@H]3[C@@H](O)C[C@H](O[C@H]4CC[C@@]5(C)[C@H](CC[C@@H]6[C@@H]5CC[C@]5(C)[C@@H](C7=CC(=O)OC7)CC[C@]65O)C4)O[C@@H]3C)O[C@@H]2C)C[C@H](O)[C@@H]1O")
"inactive"
>>> value_reported("CCc1ccccc1C")
"inactive"
>>> value_reported("CNC")
"inactive"
>>> value_reported("O=C1C(Cl)=C(Cl)C(=O)c2ccccc21")
"inactive"
>>> value_reported("O=C(Cl)c1ccc(Cl)cc1")
"inactive"
>>> value_reported("C[C@]12CC[C@H](O)CC1=CC[C@@H]1[C@@H]2CC[C@]2(C)C(=O)CC[C@@H]12")
"inactive"
>>> value_reported("CCCCC(CC)CO[N+](=O)[O-] (configuration not stated)")
"inactive"
>>> value_reported("O=C(O)C(F)(F)C(F)(F)C(F)(F)C(F)(F)C(F)(F)C(F)(F)F")
"inactive"
>>> value_reported("Cc1cc(Cl)ccc1O[C@H](C)C(=O)O")
"inactive"
>>> value_reported("COc1cccc(C=O)c1")
"inactive"
>>> value_reported("O=P(O)(O)CN(CP(=O)(O)O)CP(=O)(O)O")
"inactive"
>>> value_reported("Oc1cccc2cccnc12")
"inactive"
>>> value_reported("CC(C#N)CCC#N (configuration not stated)")
"inactive"
>>> value_reported("ClC1=C(Cl)[C@]2(Cl)[C@@H]3[C@@H](Cl)[C@@H](Cl)C[C@@H]3[C@@]1(Cl)C2(Cl)Cl")
"inactive"

* * *

Assay: CCTE_Shafer_MEA_acute_per_network_burst_spike_number_std: CCTE's Neural Acute Assay for Standard Deviation of Number of Spikes in a Network Burst, Shafer Lab (AID 2284020);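 further: fitted for decrease in spike-number SD versus DMSO so actives lower it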
Activity calls are given as the source filed them. The calls were made as follows: active = hit-call score of the fitted dose curve at least 0.9, where 1 is the maximum; inactive = score below 0.9.
Classes used: active, inactive

>>> category_label("CCC(=O)C(CC(C)N(C)C)(c1ccccc1)c1ccccc1 (stereo not given)")
"inactive"
>>> category_label("O=C1C2(Cl)C3(Cl)C4(Cl)C(Cl)(Cl)C5(Cl)C3(Cl)C1(Cl)C5(Cl)C24Cl (stereo not given)")
"active"
>>> category_label("O=C(O)C(Cl)(Cl)Cl")
"inactive"
>>> category_label("CCCCCCCCc1ccc(O)cc1")
"inactive"
>>> category_label("CC(C)(C)c1cc(O)ccc1O")
"active"
>>> category_label("CCOP(=S)(OCC)SCSP(=S)(OCC)OCC")
"active"
>>> category_label("ClC1(Cl)C2(Cl)C3(Cl)C4(Cl)C(Cl)(Cl)C5(Cl)C3(Cl)C1(Cl)C5(Cl)C24Cl (stereo not given)")
"inactive"
>>> category_label("O=C(O)C(F)(F)C(F)(F)C(F)(F)C(F)(F)C(F)(F)C(F)(F)C(F)(F)C(F)(F)C(F)(F)C(F)(F)F")
"inactive"
>>> category_label("CC(=O)OC(c1ccccc1)C(Cl)(Cl)Cl (stereo not given)")
"inactive"
>>> category_label("C[C@]12CCC(=O)C[C@@H]1CC[C@@H]1[C@@H]2CC[C@]2(C)[C@@H](O)CC[C@@H]12")
"inactive"

* * *

Read-out: Interleukin 6 (IL6), IL6 (gene 3569)
Experiment: BSK_BT_xIL6: BioMAP Diversity Plus: BT Assay for Interleukin 6 (IL6) Biomarker Activity (AID 2284228)
Conditions: primary human B cells with PBMC
Calls of active or inactive are those of the source. Rule for the calls: active = hit-call score of the fitted dose curve at least 0.9, where 1 is the maximum; inactive = score below 0.9.
Classes used: t = active, f = inactive

>>> category_label("CC(C)CCCCCCOC(=O)c1ccccc1C(=O)OCCCCCCC(C)C")
"f"
>>> category_label("Nc1ccc(-c2ccc(N)c(Cl)c2)cc1Cl")
"f"
>>> category_label("COC(=O)c1sccc1S(=O)(=O)NC(=O)Nc1nc(C)nc(OC)n1")
"f"
>>> category_label("Oc1c(I)cc(I)cc1I")
"f"
>>> category_label("O=C(O)CCC(F)(C(F)(F)F)C(F)(F)F")
"f"
>>> category_label("COc1cc(OC)nc(NC(=O)NS(=O)(=O)c2ncccc2C(=O)N(C)C)n1")
"f"
>>> category_label("CC(=O)C(Cl)C(=O)N(C)C (centres undefined)")
"t"
>>> category_label("Nc1cccc2ccccc12")
"f"
>>> category_label("CCOP(=S)(OCC)SCCS(=O)(=O)CC")
"f"
>>> category_label("COP(=S)(OC)Oc1cc(Cl)c(Cl)cc1Cl")
"f"
>>> category_label("CCCCCCCCC(=O)NCc1ccc(O)c(OC)c1")
"f"
>>> category_label("CCCCC(CC)CO[N+](=O)[O-] (centres undefined)")
"f"
>>> category_label("COP(=S)(OC)Oc1c(Cl)cc(C)cc1Cl")
"f"
>>> category_label("COP(=S)(OC)Oc1ccc(S(=O)(=O)N(C)C)cc1")
"f"
>>> category_label("CCSC(C)CC1CC(=O)C(C(CC)=NOC/C=C/Cl)=C(O)C1 (centres undefined)")
"f"
>>> category_label("CCOC(=O)/C=C(C)/C=C/C[C@@H](C)CCCC(C)C")
"t"
>>> category_label("Oc1ccc(-c2ccccc2)cc1")
"f"
>>> category_label("O=C(O)C(F)(F)C(F)(F)C(F)(F)C(F)(F)C(F)(F)C(F)(F)F")
"f"
>>> category_label("COC[C@H](C)N(C(=O)CCl)c1c(C)csc1C")
"f"
